Test system: HaCaT
Assay remarks: Induction of apoptosis in human HaCaT cells assessed as late apoptotic cells incubated for 48 hrs by annexin V FITC and propidium iodide staining based flow cytometry (reference value: 0.46 %)
Assay type: cell-based
Entries whose Activity is below 0.8% take 1; entries at or above 0.8% take 0.

Example entries begin here.
>>> df
                                   compound  label
0  COc1ccc(C(C(=O)NC(C)(C)C)N(C(=O)/C=C/C(=O)c2ccc(C)cc2)C(C)C)cc1 (stereo unspecified)      0
1  CC(C)(C)NC(=O)C(c1ccc(F)cc1)N(C(=O)/C=C/C(=O)c1ccc(F)cc1)C1CC1 (stereo unspecified)      1
2  COc1ccccc1C(C(=O)NC1CCCCC1)N(C(=O)/C=C/C(=O)c1ccc(C)cc1)C1CCCCC1 (stereo unspecified)      0
3  CN(CCOC(=O)/C=C/C(=O)c1ccc(F)cc1)C(C(=O)NC(C)(C)C)c1ccc(F)cc1 (stereo unspecified)      0
4  COc1cc(C(C(=O)NC(C)(C)C)N(CCC(C)C)C(=O)/C=C/C(=O)c2ccc(F)cc2)cc(OC)c1OC (stereo unspecified)      0

Here is the next item to consider.
Challenge: Threshold test, Activity < 0.8%: Cc1ccc(C(=O)/C=C/C(=O)N(C2CC2)C(C(=O)NCc2ccccc2)c2ncc(C)cn2)cc1 (stereo unspecified)
Response given: 0

====

In this section we review reported IC50 values for a set of molecules.
Experimental target: Thioredoxin reductase 1, cytoplasmic (Rattus norvegicus, UniProt O89049)
Sequence (O89049 whole entry): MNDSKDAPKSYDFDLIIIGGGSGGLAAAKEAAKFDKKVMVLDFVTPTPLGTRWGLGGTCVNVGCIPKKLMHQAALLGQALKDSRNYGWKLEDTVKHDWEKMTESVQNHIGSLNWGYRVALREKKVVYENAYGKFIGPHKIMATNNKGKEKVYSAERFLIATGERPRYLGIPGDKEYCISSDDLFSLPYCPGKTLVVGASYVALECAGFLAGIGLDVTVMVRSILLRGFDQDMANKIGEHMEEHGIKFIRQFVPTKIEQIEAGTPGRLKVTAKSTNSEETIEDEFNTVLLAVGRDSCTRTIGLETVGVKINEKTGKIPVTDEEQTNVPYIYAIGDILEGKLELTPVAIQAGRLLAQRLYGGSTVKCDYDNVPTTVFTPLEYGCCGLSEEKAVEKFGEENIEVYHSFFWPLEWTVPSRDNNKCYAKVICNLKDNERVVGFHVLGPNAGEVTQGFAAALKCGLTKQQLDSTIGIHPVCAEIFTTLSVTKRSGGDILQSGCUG
Assay remarks: Inhibition of rat TrxR1 using DTNB as substrate preincubated for 15 mins followed by substrate addition and measured for 20 mins by Ellman's method
# number only, unit nM dropped from output

Solved entries (count: 4):
>>> print(df.to_string())
                                   molecule  measurement_label  observed
0  COc1ccccc1C(C(=O)NC1CCCCC1)N(C(=O)/C=C/C(=O)c1ccc(C)cc1)C1CCCCC1 (stereo not given)               IC50      3120
1  CC(C)(C)NC(=O)C(c1ccc(F)cc1)N(C(=O)/C=C/C(=O)c1ccc(F)cc1)C1CC1 (stereo not given)               IC50       930
2  COc1cc(C(C(=O)NC(C)(C)C)N(CCC(C)C)C(=O)/C=C/C(=O)c2ccc(F)cc2)cc(OC)c1OC (stereo not given)               IC50      1250
3  CN(CCOC(=O)/C=C/C(=O)c1ccc(F)cc1)C(C(=O)NC(C)(C)C)c1ccc(F)cc1 (stereo not given)               IC50       600

Next, consider the following molecule.
Entry Cc1ccc(C(=O)/C=C/C(=O)N(C2CC2)C(C(=O)NCc2ccccc2)c2ncc(C)cn2)cc1 (stereo not given) — recorded IC50 = 4200
